Value source: patent US10660877B2

target.entity: human TLR7 (Homo sapiens (Human), UniProt Q9NYK1)
Sequence (Q9NYK1 27-1049): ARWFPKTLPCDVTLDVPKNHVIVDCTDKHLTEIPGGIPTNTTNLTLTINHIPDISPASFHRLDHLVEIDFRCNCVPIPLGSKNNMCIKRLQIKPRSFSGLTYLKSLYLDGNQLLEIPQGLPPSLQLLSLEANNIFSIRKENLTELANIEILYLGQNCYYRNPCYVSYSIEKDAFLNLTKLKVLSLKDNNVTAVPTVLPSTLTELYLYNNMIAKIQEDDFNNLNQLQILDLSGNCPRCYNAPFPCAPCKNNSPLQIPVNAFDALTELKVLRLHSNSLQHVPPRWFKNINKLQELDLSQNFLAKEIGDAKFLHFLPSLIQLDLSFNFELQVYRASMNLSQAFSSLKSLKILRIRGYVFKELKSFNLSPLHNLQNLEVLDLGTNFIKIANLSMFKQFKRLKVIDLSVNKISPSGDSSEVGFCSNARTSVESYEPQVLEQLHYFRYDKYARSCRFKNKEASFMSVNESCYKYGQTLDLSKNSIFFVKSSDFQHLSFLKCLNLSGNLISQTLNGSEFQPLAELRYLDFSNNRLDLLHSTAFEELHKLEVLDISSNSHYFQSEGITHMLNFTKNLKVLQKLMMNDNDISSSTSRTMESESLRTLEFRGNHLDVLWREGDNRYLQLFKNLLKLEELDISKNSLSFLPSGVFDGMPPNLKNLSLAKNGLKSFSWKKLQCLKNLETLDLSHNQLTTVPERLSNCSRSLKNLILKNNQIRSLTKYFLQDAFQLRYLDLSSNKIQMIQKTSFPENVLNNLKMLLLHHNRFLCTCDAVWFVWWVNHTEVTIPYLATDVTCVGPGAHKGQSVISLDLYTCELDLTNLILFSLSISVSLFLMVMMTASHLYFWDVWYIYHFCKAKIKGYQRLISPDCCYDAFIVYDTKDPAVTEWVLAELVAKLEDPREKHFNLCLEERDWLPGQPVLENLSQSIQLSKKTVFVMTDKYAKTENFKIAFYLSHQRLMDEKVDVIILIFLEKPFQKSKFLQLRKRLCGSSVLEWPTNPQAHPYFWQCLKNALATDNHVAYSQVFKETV
measurement.protocol: TLR7 inhibition reporter assay (HEK-Blue cells, SEAP reporter, gardiquimod stimulation)
Format: cell-based
protocol.conditions: HEK-Blue cells overexpressing human TLR7, gardiquimod 7.5 μM
Binary label based on IC50 with cut-off 0.03 µM: below gives met, not below gives not met.

Example entries and their recorded answers appear below.
{"columns": ["compound", "cat"],
 "data": [
  ["Cc1cc(-c2[nH]c3ccc(C4CCN(Cc5ncon5)CC4)cc3c2C(C)C)cc(C)n1 [Example 463]", "met"],
  ["Cc1cc(-c2[nH]c3ccc(C4CCN(Cc5cc(C)on5)CC4)cc3c2C(C)C)c(C)cn1 [Example 685]", "not met"],
  ["Cc1cc(-c2[nH]c3ccc(C4CCN(C(=O)CN(C)C)CC4)cc3c2C2CC2)cc(C)n1 [Example 590]", "met"],
  ["Cc1cc(-c2[nH]c3ccc(C4CCN(C(=O)C5CCNCC5)CC4)cc3c2C(C)C)ccn1 [Example 573]", "met"],
  ["CCc1c(-c2ccnc(C)c2)[nH]c2ccc(C3CCN(C(=O)C4CNC4)CC3)cc12 [Example 630]", "not met"],
  ["Cc1cc(-c2[nH]c3ccc(C4CCN(Cc5ccccn5)CC4)cc3c2C(C)C)cc(C)n1 [Example 431]", "met"],
  ["Cc1cc(-c2[nH]c3ccc(C4CCN(C(=O)CN(C)CCCO)CC4)cc3c2C(C)C)cc(C)n1 [Example 411]", "met"],
  ["Cc1cnc(N)cc1-c1[nH]c2ccc(C3CCNCC3)cc2c1C(C)C [Example 9]", "not met"]
]}

// query Strictly below 0.03 µM in IC50? Cc1cc(-c2[nH]c3ccc(C4CCN(CC(O)C(F)(F)F)CC4)cc3c2C(C)C)cc(C)n1 (stereo not shown) [Example 317]
// result met

// query Regarding CCc1c(-c2ccnc(C)c2)[nH]c2ccc(C3CCNCC3)cc12 [Example 63] , kindly confirm whether its IC50 is beneath 0.03 µM.
// result met

// query Does this compound meet the criterion IC50 < 0.03 µM? CCN(CC)CCCN1CCC(c2ccc3[nH]c(-c4cc(C)nc(C)c4)c(C(C)C)c3c2)CC1 [Example 671]
// result met

// query API: query returns whether the compound falls strictly under 0.03 µM in IC50. Query: Cc1cc(-c2[nH]c3ccc(C4CCN(CC(=O)N(C)C(C)(C)C)CC4)cc3c2C(C)C)cc(C)n1 [Example 250]
// result met

// query Here's an entry: CC(=O)Nc1cnc(C)cc1-c1[nH]c2ccc(C3CCNCC3)cc2c1C(C)C [Example 34] . Is its IC50 below 0.03 µM?
// result not met

// query Find out if reported IC50 for Cc1cc(-c2[nH]c3ccc(C4CCN(CC(=O)N5CCC(F)(F)C5)CC4)cc3c2C(C)C)cc(C)n1 [Example 216] is less than 0.03 µM
// result met

// query Consider Cc1cc(-c2[nH]c3ccc(C4CCN(C5CCOCC5)CC4)cc3c2C(C)C)cc(C)n1 [Example 450] . Does its IC50 lie strictly below 0.03 µM?
// result met

// query IC50 under 0.03 µM? Item: CC(C)c1c(-c2cc(F)ncc2Cl)[nH]c2ccc(C3CCNCC3)cc12 [Example 18]
// result not met

// query Hi there! Is IC50 for CCc1c(-c2ccnc(OC(C)C)c2)[nH]c2ccc(C3CCN(C4CCN(CC(C)C)CC4)CC3)cc12 [Example 769] below 0.03 µM, do you know?
// result not met

// query In plain terms, does CCc1c(-c2ccncc2)[nH]c2ccc(C3CCN(C4CCN(C)CC4)CC3)cc12 [Example 806] come in under 0.03 µM for IC50?
// result not met

// query Is it true that IC50 reported for COc1cc(-c2[nH]c3ccc(C4CCN(C5CCN(CC6CC6)CC5)CC4)cc3c2C(C)C)ccn1 [Example 796] is less than 0.03 µM?
// result not met

// query Is it true that IC50 reported for Cc1cc(-c2[nH]c3ccc(C4CCN(CC(=O)N5CCCCC5C)CC4)cc3c2C(C)C)cc(C)n1 (stereo not shown) [Example 270] is less than 0.03 µM?
// result met

// query Record Cc1cc(-c2[nH]c3ccc(C4CCN(C(=O)CN(C)CCC#N)CC4)cc3c2C(C)C)c(F)cn1 [Example 679] : is its IC50 strictly below 0.03 µM?
// result met

// query For this compound, is IC50 lower than 0.03 µM? Cc1cc(-c2[nH]c3ccc(C4CCN(C(=O)CN(C)Cc5cc(C)on5)CC4)cc3c2C(C)C)cc(C)n1 [Example 417]
// result met

// query Record Cc1cc(-c2[nH]c3ccc(C4CCNCC4)cc3c2C(C)C)c(C)c(C)n1 [Example 39] : is its IC50 strictly below 0.03 µM?
// result met

// query Please check: IC50 for Cc1cc(-c2[nH]c3ccc(C4CCN(C)CC4)cc3c2C(C)C)c(C)cn1 [Example 636] , strictly under 0.03 µM or not?
// result met

// query Answer whether the compound Cc1cc(-c2[nH]c3ccc(C4CCN(Cc5nn[nH]n5)CC4)cc3c2C(C)C)cc(C)n1 [Example 462] has IC50 strictly less than 0.03 µM
// result not met

* * *

target.entity: human TLR9 (Homo sapiens (Human), UniProt Q9NR96)
Sequence (Q9NR96 26-1032): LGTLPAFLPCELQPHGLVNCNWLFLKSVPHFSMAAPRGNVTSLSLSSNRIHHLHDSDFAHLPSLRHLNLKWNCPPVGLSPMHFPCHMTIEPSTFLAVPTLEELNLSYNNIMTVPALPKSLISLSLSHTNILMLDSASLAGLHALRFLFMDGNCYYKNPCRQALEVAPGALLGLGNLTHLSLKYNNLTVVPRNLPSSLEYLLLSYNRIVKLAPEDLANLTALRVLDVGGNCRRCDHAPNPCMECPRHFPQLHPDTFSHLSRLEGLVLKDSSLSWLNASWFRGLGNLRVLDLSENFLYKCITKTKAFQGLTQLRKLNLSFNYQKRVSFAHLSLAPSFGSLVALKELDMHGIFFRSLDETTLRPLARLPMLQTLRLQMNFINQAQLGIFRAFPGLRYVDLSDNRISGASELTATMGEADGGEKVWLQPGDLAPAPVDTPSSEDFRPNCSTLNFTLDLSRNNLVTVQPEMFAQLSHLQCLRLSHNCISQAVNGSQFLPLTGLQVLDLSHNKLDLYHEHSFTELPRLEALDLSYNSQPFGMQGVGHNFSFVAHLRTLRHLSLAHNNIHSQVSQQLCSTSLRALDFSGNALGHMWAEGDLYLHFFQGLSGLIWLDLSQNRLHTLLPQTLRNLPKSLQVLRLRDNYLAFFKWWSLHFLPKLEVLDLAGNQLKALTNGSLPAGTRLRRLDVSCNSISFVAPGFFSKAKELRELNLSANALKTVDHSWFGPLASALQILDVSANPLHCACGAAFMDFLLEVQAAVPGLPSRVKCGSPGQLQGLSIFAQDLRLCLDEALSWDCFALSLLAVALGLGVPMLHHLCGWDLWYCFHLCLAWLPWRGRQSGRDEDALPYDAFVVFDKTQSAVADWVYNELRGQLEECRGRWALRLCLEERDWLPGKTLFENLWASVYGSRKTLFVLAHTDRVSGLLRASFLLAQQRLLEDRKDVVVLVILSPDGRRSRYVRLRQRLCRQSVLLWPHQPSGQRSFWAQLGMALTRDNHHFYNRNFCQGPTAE
measurement.protocol: TLR9 inhibition reporter assay (HEK-Blue cells, SEAP reporter, ODN2006 stimulation);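 further: compounds tested over 0.05 nM to 50 µM, 22 h incubation, inhibition taken as SEAP signal drop from agonist plus DMSO wells toward a known inhibitor control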
protocol.conditions: TLR9 IC50, HEK-Blue cells overexpressing human TLR9, ODN2006 5 nM
Measured pIC50 accompanies every entry in the list below.
In textbook form, pIC50 equals minus log to base ten of the concentration in mol/L.

{"columns": ["compound", "target.entity", "value"],
 "data": [
  ["Cc1cc(-c2[nH]c3ccc(C4CCN(CC(=O)N5CCC(F)(F)C5)CC4)cc3c2C(C)C)cc(C)n1 [Example 216]", "human TLR9 (Homo sapiens (Human), UniProt Q9NR96)", 6.50],
  ["Cc1cc(-c2[nH]c3ccc(C4CCN(C(=O)C(F)F)CC4)cc3c2C(C)C)cc(C)n1 [Example 105]", "human TLR9 (Homo sapiens (Human), UniProt Q9NR96)", 4.92]
]}

Documented pIC50 of Cc1cc(-c2[nH]c3ccc(C4CCN(C(=O)Cc5cc(N)n[nH]5)CC4)cc3c2C(C)C)cc(C)n1 [Example 139] : 5.05

Entry Cc1cc(-c2[nH]c3ccc(C4CCN(C(=O)C5CCNC5)CC4)cc3c2C(C)C)cc(C)n1 (single isomer, unassigned) [Example 181] — recorded pIC50 = 6.27

Reported pIC50 of Cc1cc(-c2[nH]c3ccc(C4CCNCC4O)cc3c2C(C)C)cc(C)n1 (single isomer, unassigned) [Example 488B] : 6.51

Looking up Cc1cc(-c2[nH]c3ccc(C4CCN(CC(=O)N5CC(O)C5)CC4)cc3c2C(C)C)cc(C)n1 [Example 229] , I see its pIC50 listed as 6.78

* * *

target.entity: human TLR9 (Homo sapiens (Human))
measurement.protocol: TLR9 inhibition reporter assay (HEK-Blue cells, SEAP reporter, ODN2006 stimulation)
protocol.conditions: read-out: TLR9 IC50, HEK-Blue cells overexpressing human TLR9, ODN2006 5 nM
Measured IC50 values are reported for all entries that follow.

Study these solved cases before continuing.
{"columns": ["smiles.string", "IC50"],
 "data": [
  ["Cc1cc(-c2[nH]c3ccc(C4CCN(C(=O)Cn5cncn5)CC4)cc3c2C(C)C)cc(C)n1", "> 50 µM"],
  ["Cc1cc(-c2[nH]c3ccc(C4CCN(CC(=O)NCCC(C)C)CC4)cc3c2C(C)C)cc(C)n1", "1.89 µM"],
  ["Cc1cc(-c2[nH]c3ccc(C4CCN(Cc5ncco5)CC4)cc3c2C(C)C)c(F)cn1", "> 50 µM"]
]}

Please examine the following record next.
// IC50 (human TLR9 (Homo sapiens (Human))) for "Cc1cc(-c2[nH]c3ccc(C4CCN(C(=O)C5(C(N)=O)CC5)CC4)cc3c2C(C)C)cc(C)n1" = > 50 µM

* * *

target.entity: UniProt Q9NR97
Sequence (Q9NR97 27-1041): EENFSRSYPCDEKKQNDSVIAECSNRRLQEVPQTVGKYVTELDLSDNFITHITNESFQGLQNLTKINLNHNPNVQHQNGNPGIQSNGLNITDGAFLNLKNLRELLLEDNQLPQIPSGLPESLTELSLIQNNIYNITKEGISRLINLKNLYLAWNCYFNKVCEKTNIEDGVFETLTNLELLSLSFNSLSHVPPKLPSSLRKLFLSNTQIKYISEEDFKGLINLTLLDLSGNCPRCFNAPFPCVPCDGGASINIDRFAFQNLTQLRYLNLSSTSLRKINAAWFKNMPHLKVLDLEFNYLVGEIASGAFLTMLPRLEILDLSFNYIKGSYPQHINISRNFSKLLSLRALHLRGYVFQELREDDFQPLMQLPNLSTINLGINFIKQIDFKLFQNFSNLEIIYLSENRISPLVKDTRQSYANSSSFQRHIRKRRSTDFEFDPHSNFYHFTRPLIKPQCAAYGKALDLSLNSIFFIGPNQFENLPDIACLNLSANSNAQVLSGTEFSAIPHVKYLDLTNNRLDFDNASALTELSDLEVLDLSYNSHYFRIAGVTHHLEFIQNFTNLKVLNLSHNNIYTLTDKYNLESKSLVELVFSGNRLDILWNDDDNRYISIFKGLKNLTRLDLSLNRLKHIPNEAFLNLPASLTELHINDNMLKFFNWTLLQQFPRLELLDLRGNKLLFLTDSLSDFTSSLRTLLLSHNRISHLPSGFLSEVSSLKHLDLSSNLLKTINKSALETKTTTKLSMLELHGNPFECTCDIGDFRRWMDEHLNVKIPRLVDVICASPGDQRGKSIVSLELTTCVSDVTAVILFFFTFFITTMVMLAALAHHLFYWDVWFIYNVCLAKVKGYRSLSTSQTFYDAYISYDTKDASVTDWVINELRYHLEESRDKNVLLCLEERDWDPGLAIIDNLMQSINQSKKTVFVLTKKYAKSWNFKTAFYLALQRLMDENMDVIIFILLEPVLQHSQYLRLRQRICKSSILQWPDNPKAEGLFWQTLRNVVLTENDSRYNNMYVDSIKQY
measurement.protocol: TLR8 inhibition reporter assay (HEK-Blue cells, SEAP reporter, R848 stimulation);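 further: compounds tested from 0.05 nM to 50 µM, 22 h at 37 °C, SEAP measured with HEK-Blue Detection, inhibition relative to agonist plus DMSO versus a known inhibitor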
protocol.conditions: read-out: TLR8 IC50, HEK-Blue cells overexpressing human TLR8, R848 15.9 μM
property.label: log10 of IC50 (log10 of the value in nM)
Log scale reminder: IC50 in nM, then log10 taken.

The following compounds have reported results that may help.
{"columns": ["smiles.string", "property.label", "value"],
 "data": [
  ["Cc1cc(-c2[nH]c3ccc(C4CCN(CC(=O)N5CCOC[C@H]5CO)CC4)cc3c2C(C)C)cc(C)n1", "log10 of IC50", 1.63],
  ["Cc1cc(-c2[nH]c3ccc(C4CCN(C(=O)CNC[C@@H](O)CO)CC4)cc3c2C(C)C)ccn1", "log10 of IC50", 1.50],
  ["Cc1cc(-c2[nH]c3ccc(C4CCN(CC(=O)NCCC(C)C)CC4)cc3c2C(C)C)cc(C)n1", "log10 of IC50", 1.71]
]}

"Cc1cc(-c2[nH]c3cc(C(F)(F)F)c(C4CCNCC4)cc3c2C(C)C)ccn1" has a reported log10 of IC50 of 2.64

What the record says about "CCc1c(-c2ccncc2)[nH]c2ccc(C3CCN(C4CCN(C(C)C)CC4)CC3)cc12" : log10 of IC50 is 1.05
